tested on: KM12; assay: NCI tumour cell line growth inhibition, 48 h
The source made the active and inactive calls. Rule as the data show it: active = GI50 up to about 1.1 µM and inactive = higher. Square brackets hold non-standard residues; d marks the D form. Peptide text beside a SMILES is read from it. * marks the point of attachment. X26 = COC1=CC(=O)N(C(=O)[C@@H](O*)C(C)C)[C@H]1Cc1ccccc1; NMeV = CN[C@H](C(=O)O)C(C)C; Hexanoyl = CCCCCC(=O)*
reported-property: GI50

CCCCCC(=O)N[C@H](C(=O)N[C@H](C(=O)N(C)[C@H](C(=O)N1CCC[C@H]1C(=O)N1CCC[C@H]1C(=O)O[C@H](C(=O)N1C(=O)C=C(OC)[C@@H]1Cc1ccccc1)C(C)C)C(C)C)C(C)C)C(C)C (Hexanoyl-VV[NMeV]PP-X26)    > 100 µM (inactive)
COc1ccc(-c2csc(Cc3nc4ccccc4c(=O)n3-c3ccc(Cl)cc3)n2)cc1    31 µM (inactive)
O=C(NNCc1ccc(Cl)cc1)Nc1cccc2ccccc12    68.4 µM (inactive)
C=CCN1C[C@H](C)N([C@@H](c2ccc(C(=O)N3CCCCC3)cc2)c2cccc(OC)c2)C[C@H]1C    36.9 µM (inactive)
CC(=O)OCC1OC(NC(=S)Nn2c(-c3ccccc3)nc3ccccc3c2=O)C(OC(C)=O)C(OC(C)=O)C1OC(C)=O (stereo not drawn)    > 100 µM (inactive)
CCC(O)c1ccc(/N=C/c2ccccc2O)cc1 (stereo not drawn)    > 100 µM (inactive)
N#C/C(=C/Sc1ccccc1)C(=O)O    19.1 µM (inactive)
O=C(/C=C/c1ccc(F)c(F)c1)OCCc1ccccc1    > 100 µM (inactive)

====

system: U-251; experiment: NCI tumour cell line growth inhibition, 48 h
Activity calls are given as the source filed them. No stated cut-off is given here; in the data, active = GI50 up to about 1.1 µM and inactive = higher.
reported-property: GI50

CCOC(=O)/C=C(\C)c1ccc(C)cc1C    > 100 µM (inactive)
CC(C)(CCC(C)(C)N1OC1c1ccccc1)N1OC1c1ccccc1 (configuration not stated)    72.9 µM (inactive)
CC(C)(C)c1cc2ccc(C(N)=O)cc2c(=O)[nH]1    51.3 µM (inactive)
N#C/C(=C/Sc1ccccc1)C(=O)O    13.5 µM (inactive)
COC(=O)C1C(O)CC(c2ccccn2)N(Cc2ccccc2)C1c1ccccn1 (configuration not stated)    > 100 µM (inactive)
OCC1OC(n2cnc3c(Cl)nc(Nc4ccc(Cl)c(Cl)c4)nc32)CC1O (configuration not stated)    10.2 µM (inactive)
CSC1=N/C(=C\c2ccccc2)C(=O)N1CN1CCCCC1    72.6 µM (inactive)
COc1c(C(=O)/C(=N/Nc2ccccc2)C(C)=O)c(O)c(OC)c2occc12    59.7 µM (inactive)
O=C(O)CCSC(=S)Nc1ccc([N+](=O)[O-])cc1    > 56.2 µM (inactive)
CCCCCCCCCCCCCCCCOP(=O)([O-])OCC[N+](C)(C)C1CC(C)(C)N(O)C(C)(C)C1    > 100 µM (inactive)
COc1cc(C(=O)C(CO)Oc2ccccc2OC)ccc1O (configuration not stated)    > 100 µM (inactive)
CC(=O)c1cccc(Nc2c3ccccc3nc3occc23)c1    5.16 µM (inactive)
CC(=O)C1(O)CC2(c3ccccc3)C(=O)C1(c1ccccc1)C(c1ccccc1)=C2c1ccccc1 (configuration not stated)    81.3 µM (inactive)
Cc1ccc(Nc2ccc(Nc3ccc(C)cc3)c3c2C(=O)c2c(O)ccc(O)c2C3=O)cc1    > 100 µM (inactive)
COc1ccc(-c2c(-c3ccc(OC)cc3)n3c(=O)n(C)c(=O)n23)cc1    > 100 µM (inactive)
N=C1CSC2=NC3=C(CCC/C3=C\c3ccccc3)C(c3ccccc3)N12 (configuration not stated)    3.42 µM (inactive)
Cc1nnc2n1N=C(c1ccccc1)/C(=C/c1ccc(-c3ccc(Cl)cc3)o1)S2    12.1 µM (inactive)
O=C(Nc1ccc(Cl)cc1Cl)C(=O)C(C(=O)c1ccncc1)C1OC(=O)c2ccccc21 (configuration not stated)    > 100 µM (inactive)
Nc1nncc2c1ccn2C1OC(CO)C(O)C1O (configuration not stated)    > 100 µM (inactive)
c1ccc2c(c1)c1ccccc1n2Cn1c2ccccc2c2ccccc21    > 100 µM (inactive)
Cc1cccc2sc(NC(=O)c3cc([N+](=O)[O-])ccc3Cl)nc12    2.85 µM (inactive)
COc1cc(C2c3[nH]c4ccccc4c3[C@@H](Nc3ccc(C#N)cc3)[C@H]3COC(=O)N23)cc(OC)c1O (some centres not stated)    0.175 µM (active)

====

test system: IGROV-1; assay: NCI tumour cell line growth inhibition, 48 h
The source made the active and inactive calls. Rule as the data show it: active = GI50 up to about 1.1 µM and inactive = higher.
Labels: active, inactive

COC(=O)/C(Cl)=C1/CC1COCc1ccccc1 (stereo not given)    inactive
O=S1(=O)OCCOS(=O)(=O)C1(Br)Cc1ccccc1    inactive
Cc1ccccc1-n1c(N)c(-c2nc3ccccc3[nH]2)sc1=S    inactive
CC(C)(C)C(=C[S+]([O-])/N=C/c1ccccc1)C(C)(C)C (stereo not given)    inactive
O=C1Nc2ccccc2/C1=C1\C(=O)Nc2ccccc21 [ISOINDIGO]    inactive
CC1=N[C@@](C)(C2CC3C=CC2C3=O)COC1=O (stereo not given in full)    inactive
Cc1ccc(Nc2ccc(Nc3ccc(C)cc3)c3c2C(=O)c2c(O)ccc(O)c2C3=O)cc1    inactive
O=c1c2ccccc2sc2ccccc12    inactive
COc1ccc(-c2c(-c3ccc(OC)cc3)n3c(=O)n(C)c(=O)n23)cc1    inactive
CC(C)c1cc(C(C)C)c(B(c2ccccc2)c2ccccc2)c(C(C)C)c1Br    inactive
O=C1N/C(=N/N=C/C(O)C(O)C(O)C(O)CO)N/C1=C\c1ccco1 (stereo not given)    inactive
CCN(CC)c1c(C(=O)/C=C/c2ccc(OC)cc2)c(-c2ccccc2)nn(C)c1=O    inactive
COc1cc2c(c(O)c1OC)C(=O)C(Cc1ccc(O)cc1)CO2 (stereo not given)    inactive
O=C1C=CC(=O)c2c1ccc1c3ccccc3n(CCCCCCCCn3c4ccccc4c4ccc5c(c43)C(=O)C=CC5=O)c21    inactive
N#Cc1c(-c2ccc(Cl)cc2)c2c(n(C3OC(CO)C(O)C(O)C3O)c1=S)CCC2 (stereo not given)    inactive
CCCn1c(=O)c2nn3c(=O)n(CCC)c(=O)c3nn2c1=O    inactive
CC1=NN(C(=O)c2ccccc2)C(=O)C1/N=N/c1ccccc1C(=O)O (stereo not given)    inactive
COc1ccc(OC)c(NC(=O)c2c(Cl)c(Cl)c(Cl)c(Cl)c2-c2nc3ccccc3[nH]2)c1    inactive
O=C1CCC(C(=O)O)C2=C1CCCC2 (stereo not given)    inactive
CC(=O)Nc1ccc2c3c(cc(O)c2c1)N(C(=O)CCCCCCC(=O)Nc1ccc2c4c(cc(O)c2c1)N(C(=O)OC(C)(C)C)CC4CCl)CC3CCl (stereo not given)    active
CC1=NN(c2ccccc2)C(=O)C1=C1SCCCS1    inactive
C(=N\Nc1nnc(-c2nnc(N/N=C/c3ccccc3)o2)o1)/c1ccccc1    inactive
N=C1CSC2=NC3=C(CCC/C3=C\c3ccccc3)C(c3ccccc3)N12 (stereo not given)    inactive
Cn1c(=O)nc2n(-c3ccc(Cl)c(C(F)(F)F)c3)c3ccccc3nc-2c1=O    inactive
COc1cc(C2C(Cl)C(=O)N2NC(=O)c2ccc(NC(C)=O)cc2)ccc1O (stereo not given)    inactive
Cc1ccc(NC(=O)C(=O)CC(=O)c2ccccc2)cc1C    inactive
O=C(COc1ccc(OCC(=O)N2C(=O)CC/C2=N\c2ccc(Cl)cc2)cc1)N1C(=O)CS/C1=N\c1ccc(Cl)cc1    inactive
Cc1cccc2sc(NC(=O)c3cc([N+](=O)[O-])ccc3Cl)nc12    inactive
Nc1ccc2c(c1)nc1n2C(c2c(F)cccc2F)SC1 (stereo not given)    inactive
CCN(CC)CCCNc1nnc(C)c2[nH]c3ccccc3c12    inactive

====

tested on: UACC-62; experiment: NCI tumour cell line growth inhibition, 48 h
The source made the active and inactive calls. Rule as the data show it: active = GI50 up to about 1.1 µM and inactive = higher.
reported-property: GI50

N#Cc1ccc(/N=N/N2CCCC2)cc1    > 100 µM (inactive)
CC(=O)OCC1OC(OC(C)=O)C(Nc2ncc(-c3ccc(C)cc3)s2)C(OC(C)=O)C1OC(C)=O (stereo unspecified)    14.4 µM (inactive)
O=C(O)C(Cc1c[nH]cn1)N1C(=O)c2ccccc2C1=O (stereo unspecified)    > 100 µM (inactive)
COc1ccc2c(C)cc(N/N=C/c3ccc(C)s3)nc2c1    20.1 µM (inactive)
O=S(=O)(O)c1cc(Cl)c(O)c2ncc(Cl)cc12    50.1 µM (inactive)
Cn1c(=O)nc2n(-c3ccc(Cl)c(C(F)(F)F)c3)c3ccccc3nc-2c1=O    16.6 µM (inactive)

====

tested on: IGROV-1; test: NCI tumour cell line growth inhibition, 48 h
Calls of active or inactive are those of the source. Rule as the data show it: active = GI50 up to about 1.1 µM and inactive = higher.
Here, each record is paired with measured GI50 data.
reported-property: GI50

CCOC(=O)c1c(-c2[nH]c(C(=O)OCc3ccccc3)c(C)c2C(=O)OCC)[nH]c(C(=O)OCc2ccccc2)c1C    > 100 µM (inactive)
CCC(O)c1ccc(/N=C/c2ccccc2O)cc1 (stereo unspecified)    > 100 µM (inactive)
CSC1=N/C(=C\c2ccccc2)C(=O)N1CN1CCCCC1    38.7 µM (inactive)
OCC1OC(n2cnc3c(Cl)nc(Nc4ccc(Cl)c(Cl)c4)nc32)CC1O (stereo unspecified)    11.9 µM (inactive)
C=C(Br)CNC(=O)Nc1ccc(Cl)c(Cl)c1    13.6 µM (inactive)
O=C(O)c1ccc2c(c1)CC1(C2)Cc2ccccc2C1=O (stereo unspecified)    > 100 µM (inactive)
N#Cc1cc(-c2nc3ccc(F)cc3s2)ccc1N    3.27 µM (inactive)
N#CC12C(=O)N3C(=NC(c4ccccc4)NC3c3ccccc3)C1(C#N)C(c1ccccc1)NC1=C2CCCC1 (stereo unspecified)    > 100 µM (inactive)
Cc1[nH]nc(C(=O)N/N=C/c2ccccc2Cl)c1/N=N\N(C)C    40.8 µM (inactive)
Nc1nc(Cl)nc2c1ncn2C1CCC(COP(=O)(O)OP(=O)(O)OP(=O)(O)O)O1 (stereo unspecified)    30.5 µM (inactive)
COC(=O)C1=C(C(=O)OC)c2cc(OC)ccc2C(C(=S)N(C)C)S1 (stereo unspecified)    > 100 µM (inactive)
CCCCCCCCCCCCCCC(C(=O)[O-])[n+]1ccccc1 (stereo unspecified)    > 100 µM (inactive)
O=C1C2CC=CCC2C(=O)N1n1c(Cc2ccccc2)n[nH]c1=O (stereo unspecified)    > 100 µM (inactive)
CC(=O)OCC1OC(OC2CC3C(C)(C)C(O)CC[C@]3(C)C3CCC45CC4(CCC5[C@@H](C)CC(O)C(O)C(C)(C)O)[C@]23C)C(O)C(O)C1O (stereo partly specified)    > 10 µM (inactive)
NNC(=S)N/N=C(\c1nc2ccc(Cl)cc2nc1O)C(O)c1ccc(Cl)cc1Cl (stereo unspecified)    > 100 µM (inactive)
CC(C)(C)N1C=[N+](C(C)(C)C)CC1    > 100 µM (inactive)
CC(NC(=O)c1ccc(OP(=O)(OCc2ccc([N+](=O)[O-])o2)N(C)CCCCCl)cc1)c1ccc(OCC2CCCCC2)c(C(N)=O)c1 (stereo unspecified)    2.75 µM (inactive)
Clc1ccc(C2=NN(c3ccccc3)C3c4cc(Br)ccc4OCC23)cc1 (stereo unspecified)    > 100 µM (inactive)
Cc1c([N+](=O)[O-])oc2ccc3ccccc3c12    12.1 µM (inactive)
N#CC(N)(C(=O)CCC(=O)Nc1cccc(Cl)c1)c1ccc(Cl)cc1 (stereo unspecified)    > 100 µM (inactive)
c1cc2ccc1C1NCCCN1CCN1CCCNC1c1ccc(cc1)C1NCCCN1CCN1CCCNC21 (stereo unspecified)    > 100 µM (inactive)
